This section presents binders with their documented Fold IC50 vs H3/L3 values.
Molecular target: T1, human CD30 (commercial, conjugated to digoxigenin) (human, UniProt P28908 19-379, limits assumed, conjugated to digoxigenin (DIG))
T1 sequence (looked up): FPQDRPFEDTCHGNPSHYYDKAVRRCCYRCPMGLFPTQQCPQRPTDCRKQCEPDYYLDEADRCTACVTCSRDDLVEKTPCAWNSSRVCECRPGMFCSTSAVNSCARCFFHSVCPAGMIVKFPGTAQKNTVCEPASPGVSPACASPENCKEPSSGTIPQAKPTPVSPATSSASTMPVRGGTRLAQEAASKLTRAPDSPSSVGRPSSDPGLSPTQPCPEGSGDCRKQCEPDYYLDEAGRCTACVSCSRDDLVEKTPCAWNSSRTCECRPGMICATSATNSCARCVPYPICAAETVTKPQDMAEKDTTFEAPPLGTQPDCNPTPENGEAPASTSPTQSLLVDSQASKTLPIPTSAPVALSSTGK
Assay: AlphaScreen competition
Property: Fold IC50 vs H3/L3 (fold)

binder="AC10 H3.4/L3 (antibody, IgG1, name in Kabat numbering, V domains shown) VH: QVQLVQSGPEVKKPGASVKVSCKASGYTFTDYYITWVRQAPGQGLEWMGWIYPGSGNTKYNEKFQGRFVFSVDTSASTAYLQISSLKAEDTAVYFCANYGNYWFAYWGQGTLVTVSS VL: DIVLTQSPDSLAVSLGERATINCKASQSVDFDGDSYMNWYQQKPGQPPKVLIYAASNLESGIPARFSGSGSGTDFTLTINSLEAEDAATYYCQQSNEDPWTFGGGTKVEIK" property="Fold IC50 vs H3/L3" unit_descriptor=fold measured=1.28
binder="AC10 H3.13/L3 (antibody, IgG1, name in Kabat numbering, V domains shown) VH: QIQLVQSGPEVKKPGASVKVSCKASGYTFTDYYLTWVRQAPGQGLEWMGWIYPGSGNTKYNEKFQGRFVFSVDTSASTAYLQISSLKAEDTAVYFCANYGNYWFAYWGQGTLVTVSS VL: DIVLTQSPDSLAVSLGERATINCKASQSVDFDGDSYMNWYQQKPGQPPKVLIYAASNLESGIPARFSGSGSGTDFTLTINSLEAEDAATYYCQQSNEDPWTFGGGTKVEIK" property="Fold IC50 vs H3/L3" unit_descriptor=fold measured=1.52
binder="AC10 H3.16/L3 (antibody, IgG1, name in Kabat numbering, V domains shown) VH: QIQLVQSGPEVKKPGASVKVSCKASGYTFTDYYIGWVRQAPGQGLEWMGWIYPGSGNTKYNEKFQGRFVFSVDTSASTAYLQISSLKAEDTAVYFCANYGNYWFAYWGQGTLVTVSS VL: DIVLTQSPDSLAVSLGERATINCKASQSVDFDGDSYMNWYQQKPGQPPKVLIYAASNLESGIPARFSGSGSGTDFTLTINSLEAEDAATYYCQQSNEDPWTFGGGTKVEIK" property="Fold IC50 vs H3/L3" unit_descriptor=fold measured=0.15
